Record form. Attribute: inhibition at 20 µM. Fill in for each entry.
# experimental.target: E. coli CsgA (Escherichia coli, UniProt P28307)
# Construct: 6xHis (C); made in house; host or cells: E. coli NEB 3016 slyD::kan
# Sequence (P28307 23-151): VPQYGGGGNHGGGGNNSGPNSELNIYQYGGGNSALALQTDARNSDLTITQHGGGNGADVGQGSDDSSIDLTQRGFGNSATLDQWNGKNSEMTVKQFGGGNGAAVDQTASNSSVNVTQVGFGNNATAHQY
# experimental.details: Thioflavin T cell-free assay of CsgA aggregation
# Type: biochemical
# condition.label: read-out: Inhibition of Aggregation, CsgA (compound activity range)

Worked cases, answers included:
O=C(Nc1sc2c(c1C(=O)Nc1ccccc1)CCCC2)c1cc(O)c(O)c(O)c1 :: 10 to 30%
COc1cc(OC)c2c(=O)c(C(=O)Oc3cc(OC)c(OC)c(OC)c3)c[nH]c2c1 :: -10 to 10%
COc1cc(OC)c2c(=O)c(C(=O)N(C)c3cc(OC)c(OC)c(OC)c3)c[nH]c2c1 :: < -10%
COc1cc(NC(=O)c2c[nH]c3cc(OC)c(OC)c(OC)c3c2=O)cc(OC)c1OC :: 10 to 30%
COc1cc(OC)c2c(=O)c(C(=O)Nc3ccc(O)c(F)c3)c[nH]c2c1 :: < -10%

Quick batch: inhibition at 20 µM for everything below.
1. O=C(Nc1cc(O)cc(O)c1)c1c[nH]c2cc(O)cc(O)c2c1=O
2. Nc1sc2c(c1C(=O)Nc1cc(O)c(O)c(O)c1)CCCC2
3. CN(C(=O)c1c[nH]c2cc(O)cc(O)c2c1=O)c1cc(O)c(O)c(O)c1

10 to 30%
30 to 60%
> 60%

----------
Kindly state inhibition at 20 µM for each of the entries shown.
# experimental.target: E. coli CsgA (Escherichia coli, UniProt P28307)
# Construct: 6xHis (C); made in house; host or cells: E. coli NEB 3016 slyD::kan
# experimental.details: Thioflavin T cell-free assay of CsgA aggregation
# Format: biochemical
# condition.label: read-out: Inhibition of Aggregation, CsgA (compound activity range)

# count of solved cases: 5
O=C(Nc1sc2c(c1C(=O)Nc1cc(O)cc(O)c1)CCCC2)c1cc(O)c(O)c(O)c1 :: 30 to 60%
O=C(Nc1ccccc1O)c1c[nH]c2cc(O)c(O)c(O)c2c1=O :: > 60%
COc1cc(OC)cc(C(=O)Nc2sc3c(c2C(=O)Nc2cc(OC)c(OC)c(OC)c2)CCCC3)c1 :: < -10%
COc1cc(OC(=O)c2c[nH]c3cc(OC)c(OC)c(OC)c3c2=O)cc(OC)c1OC :: -10 to 10%
COc1cc(OC)c2c(=O)c(C(=O)Nc3ccccc3O)c[nH]c2c1 :: 10 to 30%

I'm hoping you can list inhibition at 20 µM for every molecule here, please.
1. NC(=O)c1c(NC(=O)c2cc(O)c(O)c(O)c2)sc2c1CCCC2
2. O=C(Nc1cc(O)c(O)c(O)c1)c1c[nH]c2cc(O)cc(O)c2c1=O

1: 30 to 60%; 2: 30 to 60%

Please give inhibition at 20 µM, item by item, for the list that follows.
1. COc1cc2[nH]cc(C(=O)Nc3ccc(O)cc3)c(=O)c2c(OC)c1OC
2. O=C(Nc1ccccc1)c1c[nH]c2cc(O)c(O)c(O)c2c1=O
3. COc1cc(OC)c2c(=O)c(C(=O)Nc3cccc(O)c3)c[nH]c2c1

1. -10 to 10%
2. 30 to 60%
3. -10 to 10%

List inhibition at 20 µM for every entry below, keeping the order given.
1. COc1cc(NC(=O)c2c(-c3cc(OC)c(OC)c(OC)c3)[nH]c3cc(OC)c(OC)c(OC)c3c2=O)cc(OC)c1OC
2. O=C(Nc1cccc(O)c1)c1c[nH]c2cc(O)c(O)c(O)c2c1=O
3. O=C(Nc1sc2c(c1C(=O)Nc1cc(O)c(O)c(O)c1)CCCC2)c1cc(O)cc(O)c1
4. COc1cc(OC)c2c(=O)c(C(=O)Nc3cc(OC)c(OC)c(OC)c3)c[nH]c2c1
5. COc1cc(OC)c2c(=O)c(C(=O)Nc3ccccc3)c[nH]c2c1
6. O=C(Nc1sc2c(c1C(=O)Nc1cc(O)c(O)c(O)c1)CCCC2)c1cc(O)c(O)c(O)c1
7. COc1cc(C(=O)Nc2sc3c(c2C(=O)Nc2ccccc2)CCCC3)cc(OC)c1OC

10 to 30%
30 to 60%
30 to 60%
-10 to 10%
< -10%
30 to 60%
< -10%
